TESTED_SYSTEM: full-length SARM1 (FL-SARM1) (Homo sapiens)
Sequence (Q6SZW1 28-724): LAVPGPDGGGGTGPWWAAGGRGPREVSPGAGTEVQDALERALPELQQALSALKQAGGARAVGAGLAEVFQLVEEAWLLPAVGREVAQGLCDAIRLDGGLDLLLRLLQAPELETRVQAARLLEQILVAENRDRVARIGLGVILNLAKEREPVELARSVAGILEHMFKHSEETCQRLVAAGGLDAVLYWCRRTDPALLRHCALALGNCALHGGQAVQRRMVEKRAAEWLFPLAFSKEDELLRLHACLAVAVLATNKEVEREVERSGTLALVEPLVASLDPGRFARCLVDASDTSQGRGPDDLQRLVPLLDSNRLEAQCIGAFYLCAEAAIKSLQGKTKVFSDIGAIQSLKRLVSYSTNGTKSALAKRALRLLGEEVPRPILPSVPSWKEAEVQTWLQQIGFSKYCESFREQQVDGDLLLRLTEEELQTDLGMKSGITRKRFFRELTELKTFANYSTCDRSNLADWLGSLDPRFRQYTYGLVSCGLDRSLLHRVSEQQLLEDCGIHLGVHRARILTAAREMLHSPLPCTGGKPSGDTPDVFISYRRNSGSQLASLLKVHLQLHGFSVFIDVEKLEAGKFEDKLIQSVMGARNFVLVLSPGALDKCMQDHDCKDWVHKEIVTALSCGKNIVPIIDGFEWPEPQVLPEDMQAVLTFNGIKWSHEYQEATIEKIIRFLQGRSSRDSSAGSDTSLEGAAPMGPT
ASSAY_PROCEDURE: FL-SARM1 cellular lysate assay (NAD/NADH-Glo detection of remaining NAD+, NMN-activated)
TEST_CONTEXT: Activity (IC50 class), 11 point curve
pIC50: −log10 of the molar value.
RESULT_TYPE: pIC50

Cc1ccc(NC(=O)C(C)C2CCC2)cc1-c1cccnn1 (racemic) [Example 297]
5.00 to 6.00

Query :: Please give the measured pIC50 for this compound: COCCOCc1ccnc(-c2cc(NC(=O)N3[C@@H]4C[C@@H](C)C[C@H]3C4)ccc2C)n1 [Example 243]
Result :: 5.00 to 6.00

Query :: Requested field: pIC50. Item: COC(=O)[C@@H]1CC[C@@H]2C[C@H]1N2C(=O)Nc1ccc(C)c(-c2ccccn2)c1 (racemic) [Example 70]
Result :: 5.00 to 6.00

Query :: Entry Cc1ccc(NC(=O)[C@@H]2C[C@H](C(F)(F)F)CN2c2ncccn2)cc1-c1cccnn1 [Example 174] : reported pIC50 = ?
Result :: < 5.00
